molecular target: Estrogen receptor (Homo sapiens) (UniProt P03372); test: qHTS assay to identify small molecule agonists of the estrogen receptor alpha (ER-alpha) signaling pathway using the BG1 cell line (AID 743079); details: BG1Luc4E2 cells, ERE-luciferase agonist, 22 h; series mostly up to 70.3 µM; note: nearly all actives have a fitted effect of over 20% in size
Sequence (P03372 whole entry, looked up): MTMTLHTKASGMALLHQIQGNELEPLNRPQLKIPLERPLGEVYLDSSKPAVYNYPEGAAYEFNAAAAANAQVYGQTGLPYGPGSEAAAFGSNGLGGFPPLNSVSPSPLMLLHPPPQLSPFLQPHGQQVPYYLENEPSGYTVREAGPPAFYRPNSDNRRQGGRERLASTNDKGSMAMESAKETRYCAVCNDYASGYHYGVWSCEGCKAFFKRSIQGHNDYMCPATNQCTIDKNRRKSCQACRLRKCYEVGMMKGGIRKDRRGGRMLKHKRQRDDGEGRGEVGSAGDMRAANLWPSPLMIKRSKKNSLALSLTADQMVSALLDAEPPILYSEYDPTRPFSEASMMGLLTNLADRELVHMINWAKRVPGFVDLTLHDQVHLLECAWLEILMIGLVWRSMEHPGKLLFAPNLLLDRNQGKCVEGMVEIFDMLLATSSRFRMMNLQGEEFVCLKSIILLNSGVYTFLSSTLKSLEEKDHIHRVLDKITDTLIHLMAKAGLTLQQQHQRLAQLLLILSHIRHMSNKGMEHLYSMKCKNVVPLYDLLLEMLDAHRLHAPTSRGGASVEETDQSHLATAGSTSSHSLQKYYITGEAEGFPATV
Results filed as inconclusive are left out. Activity calls are given as the source filed them. Calls come from the whole dose curve; as a rule, active = well fitted activation curve with a large enough effect in the repeat runs; inconclusive = weak or mixed curves, or effect the other way; inactive = no such curve, though single readings can be large or run the other way.
Give your call using only these classes: active, inactive

Record excerpt, results attached:
> print(dat)
                                   molecule                       experimental.system  discrete.label
1                              N#Cc1ccccc1O  Estrogen receptor (Homo sapiens) (UniProt P03372)        inactive
2             Cc1ccc2c(c1)C(=O)c1ccccc1C2=O  Estrogen receptor (Homo sapiens) (UniProt P03372)          active
3  Cc1c(NC(=O)c2cccnc2)c(=O)n(-c2ccccc2)n1C  Estrogen receptor (Homo sapiens) (UniProt P03372)        inactive

[Q] # fetch the recorded call for CCCC(CC)c1ccccc1 (configuration not stated) here
[A] inactive

[Q] // return assay outcome for ONc1ccccc1
[A] active

[Q] Status in this test for COC(C)(OC)OC ?
[A] inactive

[Q] Which outcome was assigned to CC(S)C(C)S (configuration not stated) in this test?
[A] inactive

[Q] Can you look up the reported call for CC1(C)Oc2ccc(C#N)cc2[C@@H](N2CCCC2=O)[C@@H]1O for me?
[A] inactive

[Q] GET /call?item= CCCCCCC1(C)CCC(=O)O1 (configuration not stated) returns the recorded outcome of this test.
[A] inactive

Measured values drawn from PubChem BioAssay (Tox21) for this set.
